# key: entry, value: IC50
Biological target: HIV-1 protease (Human immunodeficiency virus type 1 group M subtype B, UniProt P04585)
Experiment: biochemical
Conditions: HIV-1 Protease IC50

[
  {
    "molecule": "CCC(c1cccc(NC(=O)CC[C@H](N)C(=O)O)c1)c1c(O)c2ccccc2oc1=O (some centres unmarked)",
    "IC50 [µM]": 3.1
  },
  {
    "molecule": "O=c1oc2ccccc2c(O)c1C(c1ccccc1)C1CC1 (centres unmarked)",
    "IC50 [µM]": 1.25
  },
  {
    "molecule": "CCC(c1cccc(NC(=O)CNC(=O)OC(C)(C)C)c1)c1c(O)c2ccccc2oc1=O (centres unmarked)",
    "IC50 [µM]": 2.1
  },
  {
    "molecule": "O=c1oc2ccccc2c(O)c1C(C1CC1)C1CC1",
    "IC50 [µM]": 6.74
  },
  {
    "molecule": "CCC(c1ccccc1)c1c(O)c2ccc(OC(C)C)cc2oc1=O (centres unmarked)",
    "IC50 [µM]": 3.7
  }
]
